method_description: Kinetic solubility in water and bio-relevant media (SGF, FaSSIF, FeSSIF) at 37° C.
Type: physicochemical
experimental_parameters: H2O, 37° C., 24 hrs; calculated by freeform
Where a name gives a salt, the structure may show the parent alone.
Reported S: Solubility values follow for various compounds
Just the number please, in µg/mL, no unit attached.

Solved cases below.
N#Cc1ccc(COc2cccc(C3CCN(Cc4nc5ccc(C(=O)O)cc5n4Cc4cncs4)CC3)n2)c(F)c1 [Freeform Type C]: 8
N#Cc1ccc(COc2cccc(C3CCN(Cc4nc5ccc(C(=O)O)cc5n4Cc4cncs4)CC3)n2)c(F)c1 [Meglumine salt Type A]: 7000
N#Cc1ccc(COc2cccc(C3CCN(Cc4nc5ccc(C(=O)O)cc5n4Cc4cncs4)CC3)n2)c(F)c1 [Potassium salt Type A]: 4900

Alright, here's another compound for you.
Problem: Item under review: N#Cc1ccc(COc2cccc(C3CCN(Cc4nc5ccc(C(=O)O)cc5n4Cc4cncs4)CC3)n2)c(F)c1 [Tris salt Type C] . Reported S: Solubility?
Solution: 990

====

method_description: Kinetic solubility in water and bio-relevant media (SGF, FaSSIF, FeSSIF) at 37° C.
Type: physicochemical
experimental_parameters: SGF, 37° C., 2 hrs; calculated by freeform
Counter-ions that a name gives are not always drawn.
assay_endpoint: S: Solubility (mg/mL)
Value expressed in mg/mL; do not type the unit.

Look over these answered cases.
N#Cc1ccc(COc2cccc(C3CCN(Cc4nc5ccc(C(=O)O)cc5n4Cc4cncs4)CC3)n2)c(F)c1 [Meglumine salt Type A]: 0.72
N#Cc1ccc(COc2cccc(C3CCN(Cc4nc5ccc(C(=O)O)cc5n4Cc4cncs4)CC3)n2)c(F)c1 [Freeform Type C]: 0.072

We next turn to a different compound, shown below.
Problem: If you can, please state the reported S: Solubility value of N#Cc1ccc(COc2cccc(C3CCN(Cc4nc5ccc(C(=O)O)cc5n4Cc4cncs4)CC3)n2)c(F)c1 [Potassium salt Type A] .
Solution: 0.069

====

method_description: Kinetic solubility in water and bio-relevant media (SGF, FaSSIF, FeSSIF) at 37° C.
Type: physicochemical
experimental_parameters: SGF, 37° C., 24 hrs; residual solids by XRPD
Protocol: Add 4 mL of medium (H2O, SGF, FaSSIF and FeSSIF). • Rolled at 37° C. (˜25 rpm). Sampling at 1, 2, 4 and 24 hrs. • At each time-point, sampled 0.8 mL of solution or suspension into a centrifuge tube prior to centrifugation (12000 rpm, 37° C., 5 min) and filtration through 0.45 μm PTFE membrane. • Tested pH and concentration for the filtrate. Analyze residual solids by XRPD. 0.1 g of NaCl and 0.05 g of Triton X-100 were weighed into a 50-mL volumetric flask. […]
Counter-ions that a name gives are not always drawn.
assay_endpoint: FC: Form change

Look over these answered cases.
N#Cc1ccc(COc2cccc(C3CCN(Cc4nc5ccc(C(=O)O)cc5n4Cc4cncs4)CC3)n2)c(F)c1 [Tris salt Type C]: Yes
N#Cc1ccc(COc2cccc(C3CCN(Cc4nc5ccc(C(=O)O)cc5n4Cc4cncs4)CC3)n2)c(F)c1 [Potassium salt Type A]: Yes
N#Cc1ccc(COc2cccc(C3CCN(Cc4nc5ccc(C(=O)O)cc5n4Cc4cncs4)CC3)n2)c(F)c1 [Freeform Type C]: No
N#Cc1ccc(COc2cccc(C3CCN(Cc4nc5ccc(C(=O)O)cc5n4Cc4cncs4)CC3)n2)c(F)c1 [Fumarate Type A]: No

Problem: What FC: Form change value was documented for this compound, N#Cc1ccc(COc2cccc(C3CCN(Cc4nc5ccc(C(=O)O)cc5n4Cc4cncs4)CC3)n2)c(F)c1 [Meglumine salt Type A] ?
Solution: Yes

====

method_description: Kinetic solubility in water and bio-relevant media (SGF, FaSSIF, FeSSIF) at 37° C.
Format: physicochemical
experimental_parameters: H2O, 37° C., 4 hrs; residual solids by XRPD
Where a name gives a salt, the structure may show the parent alone.
assay_endpoint: FC: Form change

N#Cc1ccc(COc2cccc(C3CCN(Cc4nc5ccc(C(=O)O)cc5n4Cc4cncs4)CC3)n2)c(F)c1 [Potassium salt Type A]: Yes
N#Cc1ccc(COc2cccc(C3CCN(Cc4nc5ccc(C(=O)O)cc5n4Cc4cncs4)CC3)n2)c(F)c1 [Tris salt Type C]: Yes
N#Cc1ccc(COc2cccc(C3CCN(Cc4nc5ccc(C(=O)O)cc5n4Cc4cncs4)CC3)n2)c(F)c1 [Freeform Type C]: No
N#Cc1ccc(COc2cccc(C3CCN(Cc4nc5ccc(C(=O)O)cc5n4Cc4cncs4)CC3)n2)c(F)c1 [Fumarate Type A]: No

====

method_description: Kinetic solubility in water and bio-relevant media (SGF, FaSSIF, FeSSIF) at 37° C.
Type: physicochemical
experimental_parameters: FaSSIF, 37° C., 2 hrs; calculated by freeform
Procedure: Add 4 mL of medium (H2O, SGF, FaSSIF and FeSSIF). • Rolled at 37° C. (˜25 rpm). Sampling at 1, 2, 4 and 24 hrs. • At each time-point, sampled 0.8 mL of solution or suspension into a centrifuge tube prior to centrifugation (12000 rpm, 37° C., 5 min) and filtration through 0.45 μm PTFE membrane. • Tested pH and concentration for the filtrate. Analyze residual solids by XRPD. 0.1 g of NaCl and 0.05 g of Triton X-100 were weighed into a 50-mL volumetric flask. […]
Where a name gives a salt, the structure may show the parent alone.
assay_endpoint: S: Solubility (µg/mL)
Output spec: scalar in µg/mL, unitless text.

N#Cc1ccc(COc2cccc(C3CCN(Cc4nc5ccc(C(=O)O)cc5n4Cc4cncs4)CC3)n2)c(F)c1 [Freeform Type C]: 7
N#Cc1ccc(COc2cccc(C3CCN(Cc4nc5ccc(C(=O)O)cc5n4Cc4cncs4)CC3)n2)c(F)c1 [Meglumine salt Type A]: 1300
N#Cc1ccc(COc2cccc(C3CCN(Cc4nc5ccc(C(=O)O)cc5n4Cc4cncs4)CC3)n2)c(F)c1 [Tris salt Type C]: 290

Okay, now this compound:
Problem: S: Solubility for N#Cc1ccc(COc2cccc(C3CCN(Cc4nc5ccc(C(=O)O)cc5n4Cc4cncs4)CC3)n2)c(F)c1 [Potassium salt Type A] ?
Solution: 21

====

method_description: Solubility of Meglumine salt Type A in SGF and FaSSIF at 37° C. with adjusting pH to that of the blank medium
Format: physicochemical
experimental_parameters: pH 1.8, simulated gastric fluid, thermodynamic from solid; SGF, pH adjusted to 1.8, 37° C., 24 hrs; read-out: solubility in SGF
Counter-ions that a name gives are not always drawn.
assay_endpoint: solubility at 24 h (mg/mL)
Your answer is read as mg/mL, so omit the unit and give the number.

Problem: Which solubility at 24 h value belongs to N#Cc1ccc(COc2cccc(C3CCN(Cc4nc5ccc(C(=O)O)cc5n4Cc4cncs4)CC3)n2)c(F)c1 [Meglumine salt Type A] ?
Solution: 0.14

====

method_description: pH solubility in pH 1.0-8.0 buffers at RT
Assay type: physicochemical
experimental_parameters: pH buffers, pH 1, aqueous buffer, thermodynamic from solid, pH 1.0 buffer, 2 and 24 hours
assay_endpoint: solubility

Problem: Entry under review: N#Cc1ccc(COc2cccc(C3CCN(Cc4nc5ccc(C(=O)O)cc5n4Cc4cncs4)CC3)n2)c(F)c1 [Freeform Type C] . Reported solubility?
Solution: ≥ 130 µg/mL

====

method_description: Kinetic solubility in water and bio-relevant media (SGF, FaSSIF, FeSSIF) at 37° C.
Type: physicochemical
experimental_parameters: FaSSIF, 37° C., 1 hr; residual solids by XRPD
Where a name gives a salt, the structure may show the parent alone.
assay_endpoint: FC: Form change

Here are 4 compounds together with their reported answers.
N#Cc1ccc(COc2cccc(C3CCN(Cc4nc5ccc(C(=O)O)cc5n4Cc4cncs4)CC3)n2)c(F)c1 [Meglumine salt Type A]: Yes
N#Cc1ccc(COc2cccc(C3CCN(Cc4nc5ccc(C(=O)O)cc5n4Cc4cncs4)CC3)n2)c(F)c1 [Tris salt Type C]: Yes
N#Cc1ccc(COc2cccc(C3CCN(Cc4nc5ccc(C(=O)O)cc5n4Cc4cncs4)CC3)n2)c(F)c1 [Freeform Type C]: No
N#Cc1ccc(COc2cccc(C3CCN(Cc4nc5ccc(C(=O)O)cc5n4Cc4cncs4)CC3)n2)c(F)c1 [Fumarate Type A]: No

Pending compound:
Problem: Field request: FC: Form change | item: N#Cc1ccc(COc2cccc(C3CCN(Cc4nc5ccc(C(=O)O)cc5n4Cc4cncs4)CC3)n2)c(F)c1 [Potassium salt Type A]
Solution: No

====

method_description: Solid state stability at 25° C./60% RH and 40° C./75% RH for 1 week
Type: physicochemical
experimental_parameters: 25° C./60% RH/Open/1 week
Counter-ions that a name gives are not always drawn.
assay_endpoint: Purity (Area %)
Write down the numeric answer in Area % and omit the unit.

// below: answered compounds
N#Cc1ccc(COc2cccc(C3CCN(Cc4nc5ccc(C(=O)O)cc5n4Cc4cncs4)CC3)n2)c(F)c1 [Potassium salt Type A]: 96.47
N#Cc1ccc(COc2cccc(C3CCN(Cc4nc5ccc(C(=O)O)cc5n4Cc4cncs4)CC3)n2)c(F)c1 [Meglumine salt Type A]: 96.98
N#Cc1ccc(COc2cccc(C3CCN(Cc4nc5ccc(C(=O)O)cc5n4Cc4cncs4)CC3)n2)c(F)c1 [Fumarate Type A]: 96.13
N#Cc1ccc(COc2cccc(C3CCN(Cc4nc5ccc(C(=O)O)cc5n4Cc4cncs4)CC3)n2)c(F)c1 [Tris salt Type C]: 96.76

Next up:
Problem: Find the recorded Purity belonging to N#Cc1ccc(COc2cccc(C3CCN(Cc4nc5ccc(C(=O)O)cc5n4Cc4cncs4)CC3)n2)c(F)c1 [Freeform Type C] and report it.
Solution: 96.58

Provenance of the data: patent US20240360122A1
